- Tested on: HL-60
- EXPERIMENT DESCRIPTION: Cytotoxicity (XTT) on HL-60 cells
- Assay type: cell-based, human
- MEASUREMENT CONTEXT: 100 μM, 72 h
MEASUREMENT NAME: Cell viability HL60 100 μM (% vs. control)
Respond with the bare value in % vs. control.

Completed entries (count: 5):
input: Consider the compound shown here: CCCCCNC(=O)C(=O)[C@@H]1CCCN1C(=O)CNC(=O)c1ccnc2ccccc12 What is its recorded Cell viability HL60 100 μM?
output: 123

input: Give the measured Cell viability HL60 100 μM of COC(=O)[C@H](Cc1ccccc1)NC(=O)CNC(=O)C(=O)[C@@H]1CCCN1C(=O)CNC(=O)c1ccnc2ccccc12 .
output: 98

input: What Cell viability HL60 100 μM value was documented for this compound, O=C(NCCc1ccccc1)C(=O)[C@@H]1CCCN1C(=O)CNC(=O)c1ccnc2ccccc12 ?
output: 107

input: Need Cell viability HL60 100 μM, item COC(=O)[C@H](CC(C)C)NC(=O)CNC(=O)C(=O)[C@@H]1CCCN1C(=O)CNC(=O)c1ccnc2ccccc12
output: 83

input: So what does the record say about Cell viability HL60 100 μM for COc1ccc(CNC(=O)C(=O)[C@@H]2CCCN2C(=O)CNC(=O)c2ccnc3ccccc23)cc1OC ?
output: 100

Others:
input: I'd like to know its Cell viability HL60 100 μM. The compound in question is COC(=O)c1ccc(NC(=O)C(=O)[C@@H]2CCCN2C(=O)CNC(=O)c2ccnc3ccccc23)cc1
output: 103

input: Give its Cell viability HL60 100 μM value. Item: COC(=O)CNC(=O)C(=O)[C@@H]1CCCN1C(=O)CNC(=O)c1ccnc2ccccc12
output: 103

input: Query: Cell viability HL60 100 μM; subject: CC(C)NC(=O)CNC(=O)C(=O)[C@@H]1CCCN1C(=O)CNC(=O)c1ccnc2ccccc12
output: 89

input: I have this compound here, COC(=O)[C@H](CCC(N)=O)NC(=O)CNC(=O)C(=O)[C@@H]1CCCN1C(=O)CNC(=O)c1ccnc2ccccc12 , and I need its recorded Cell viability HL60 100 μM.
output: 103

input: Returns the measured Cell viability HL60 100 μM for the input compound. Input: CC(C)NC(=O)C(=O)[C@@H]1CCCN1C(=O)CNC(=O)c1ccnc2ccccc12
output: 100

input: Tell me the measured Cell viability HL60 100 μM of CC(C)(C)OC(=O)CNC(=O)C(=O)[C@@H]1CCCN1C(=O)CNC(=O)c1ccnc2ccccc12 , please.
output: 111

input: Which Cell viability HL60 100 μM reading was recorded for the compound O=C(CNC(=O)C(=O)[C@@H]1CCCN1C(=O)CNC(=O)c1ccnc2ccccc12)NCc1ccccc1 ?
output: 95

input: Reported Cell viability HL60 100 μM for COc1ccc(NC(=O)C(=O)[C@@H]2CCCN2C(=O)CNC(=O)c2ccnc3ccccc23)cc1 : what is it?
output: 108

input: Given the entry COC(=O)C(C)NC(=O)C(=O)[C@@H]1CCCN1C(=O)CNC(=O)c1ccnc2ccccc12 (mixture of isomers) , report its measured Cell viability HL60 100 μM.
output: 124

input: Bench note: what Cell viability HL60 100 μM did CN(C)C(=O)CNC(=O)C(=O)[C@@H]1CCCN1C(=O)CNC(=O)c1ccnc2ccccc12 show?
output: 76
